Molecular target: Ubiquitin carboxyl-terminal hydrolase 8 (Homo sapiens)
Sequence (P40818 whole entry): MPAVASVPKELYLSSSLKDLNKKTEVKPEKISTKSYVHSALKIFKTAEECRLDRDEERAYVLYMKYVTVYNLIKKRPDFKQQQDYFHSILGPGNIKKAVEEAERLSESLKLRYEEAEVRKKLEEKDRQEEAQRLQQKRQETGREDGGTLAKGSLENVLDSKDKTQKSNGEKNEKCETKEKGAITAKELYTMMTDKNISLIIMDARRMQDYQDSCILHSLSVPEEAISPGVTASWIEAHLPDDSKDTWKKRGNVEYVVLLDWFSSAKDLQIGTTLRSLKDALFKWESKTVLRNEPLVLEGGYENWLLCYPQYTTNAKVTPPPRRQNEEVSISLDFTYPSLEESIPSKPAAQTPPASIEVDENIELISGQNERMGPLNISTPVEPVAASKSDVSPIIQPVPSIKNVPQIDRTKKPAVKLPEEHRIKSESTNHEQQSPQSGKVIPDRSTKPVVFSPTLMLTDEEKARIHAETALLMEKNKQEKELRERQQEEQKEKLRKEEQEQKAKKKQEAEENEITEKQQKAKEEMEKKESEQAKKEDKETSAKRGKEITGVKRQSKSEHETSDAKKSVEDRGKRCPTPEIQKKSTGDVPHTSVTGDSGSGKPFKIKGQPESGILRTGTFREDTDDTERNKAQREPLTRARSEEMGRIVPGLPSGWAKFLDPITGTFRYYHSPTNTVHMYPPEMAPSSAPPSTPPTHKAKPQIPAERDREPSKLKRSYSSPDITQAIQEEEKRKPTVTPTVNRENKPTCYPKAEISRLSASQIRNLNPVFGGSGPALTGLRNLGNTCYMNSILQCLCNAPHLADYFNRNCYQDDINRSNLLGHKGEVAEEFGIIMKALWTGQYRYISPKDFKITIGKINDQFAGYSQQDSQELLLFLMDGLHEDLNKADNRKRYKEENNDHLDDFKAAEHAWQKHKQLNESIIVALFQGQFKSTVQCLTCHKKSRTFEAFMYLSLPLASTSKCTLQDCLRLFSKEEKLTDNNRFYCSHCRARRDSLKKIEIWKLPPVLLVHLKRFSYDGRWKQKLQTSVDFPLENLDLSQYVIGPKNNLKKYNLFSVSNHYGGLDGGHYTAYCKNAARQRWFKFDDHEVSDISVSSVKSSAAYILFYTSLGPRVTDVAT
Assay: Inhibition of N-terminal His6-tagged USP8 (unknown origin) expressed in Escherichia coli BL21 (DE3) cells using ubiquitin-rhodamine -110 as substrate incubated for 15 mins followed by substrate addition measured after 1 hrs by ubiquitin-rhodamine-110 based fluorometric assay
observed property: pIC50
Answers are plain numbers, as −log10 of the molar value.

In plain terms, `COc1ccc(N2CCN(C(=S)Nc3ccc([N+](=O)[O-])cc3)CC2)c(N)c1` has a documented pIC50 of 5.59
